- System: 323965-272-R-J2-PDC complex spheroid viability;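 also: spheroids exposed to agents for seven days before readout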
- methodSummary: Anticancer human tumor 323965-272-R-J2-PDC patient-derived pancreatic carcinoma cell line growth inhibition [CLK]; active = viability on the fitted dose curve at most 10% of control; inactive = the rest
- testConditions: second compound 3.16 µM; first compound 0.1 µM
Could you please pick one outcome from this set? active, inactive

Illustrative cases are given below, each with its answer.
INSERT INTO assay_data (compound, assignedclass) VALUES
  ('CCN1CCN(Cc2ccc(Nc3ncc(F)c(-c4cc(F)c5nc(C)n(C(C)C)c5c4)n3)nc2)CC1 + CNC(=O)c1ccc(Nc2nc(OC3CCCC3)c3c(-c4ccc5nc(C)oc5c4)c[nH]c3n2)c(OC)c1', 'inactive'),
  ('C#Cc1c(F)ccc2cc(O)cc(-c3ncc4c(N5CC6CCC(C5)N6)nc(OCC56CCCN5CC(F)C6)nc4c3F)c12 (stereo not given) + CN1CCN(c2cc(C(=O)Nc3cc4cc(-c5cnn(C)c5)ccc4cn3)ccn2)CC1', 'active'),
  ('Nc1ccn(C2OC(CO)C(O)C2(F)F)c(=O)n1 (stereo not given) + CNC(=O)c1ccc(Nc2nc(OC3CCCC3)c3c(-c4ccc5nc(C)oc5c4)c[nH]c3n2)c(OC)c1', 'inactive');

Enquiry: // outcome(item) with item = O=C(c1cc(Cc2n[nH]c(=O)c3ccccc23)ccc1F)N1CCN(C(=O)C2CC2)CC1 + CNC(=O)c1ccc(Nc2nc(OC3CCCC3)c3c(-c4ccc5nc(C)oc5c4)c[nH]c3n2)c(OC)c1
Return: inactive

Enquiry: // outcome(item) with item = O=c1[nH]cc(F)c(=O)[nH]1 + CN1CCN(c2cc(C(=O)Nc3cc4cc(-c5cnn(C)c5)ccc4cn3)ccn2)CC1
Return: active

Reference for the values: PubChem BioAssay AID2060619
